- System: Setaria viridis
- Experiment Notes: Pre-emergence herbicide efficacy at 80 g/ha, SETVI
- Format: in vivo
Here the recorded Pre-emergence efficacy against SETVI is given for each entry.
Please state the figure in %; there is no need to write the unit.

# count of solved cases: 6
| Chem Smiles | Recorded Result |
| --- | --- |
| FC(F)c1cc(-c2c(Cl)cccc2Nc2ncc(Cl)cn2)on1 | 100 |
| Fc1cnc(Nc2cccc(Cl)c2-c2cc(C(F)F)no2)nc1 | 100 |
| N#Cc1cccc(Nc2ncc(F)cn2)c1-n1cc(C(F)(F)F)cn1 | 100 |
| Fc1cccc(Nc2ncc(Cl)cn2)c1-c1cc(C(F)F)no1 | 100 |
| Fc1cnc(Nc2cccc(F)c2-c2cc(C(F)F)no2)nc1 | 100 |
| Cc1cnn(-c2c(C#N)cccc2Nc2ncc(Cl)cn2)c1 | 90 |

Exam item: What value of Pre-emergence efficacy against SETVI has been reported for the following compound? "N#Cc1cccc(Nc2ncc(Cl)cn2)c1-n1cc(C(F)(F)F)cn1"
Marked response: 100

Exam item: What value of Pre-emergence efficacy against SETVI has been reported for the following compound? "Cc1cnn(-c2c(C#N)cccc2Nc2ncc(F)cn2)c1"
Marked response: 100

Exam item: What value of Pre-emergence efficacy against SETVI has been reported for the following compound? "Cc1cnc(Nc2cccc(F)c2-c2cc(C(F)F)no2)nc1"
Marked response: 90

Exam item: What value of Pre-emergence efficacy against SETVI has been reported for the following compound? "FC(F)c1cc(-c2ccccc2Nc2ncc(Cl)cn2)on1"
Marked response: 100

* * *

Here the recorded Post-emergence efficacy at 80 g/ha against KCHSC in % is given for each entry.
- System: Kochia scoparia
- Experiment Notes: Post-emergence herbicidal efficacy at 80 g/ha, KCHSC
- Format: in vivo
- Conditions: rated visually after about 3 weeks vs untreated controls, 100% = plants have died
Please state the figure in %; there is no need to write the unit.

# count of solved cases: 4
| Chem Smiles | Value Unit | Recorded Result |
| --- | --- | --- |
| Cc1cnn(-c2c(C#N)cccc2Nc2ncc(F)cn2)c1 | % | 90 |
| Fc1cccc(Nc2ncc(Cl)cn2)c1-c1cc(C(F)F)no1 | % | 100 |
| N#Cc1cccc(Nc2ncc(Cl)cn2)c1-n1cc(C(F)(F)F)cn1 | % | 100 |
| Cc1cnn(-c2c(C#N)cccc2Nc2ncc(Cl)cn2)c1 | % | 80 |

Moving on to another compound below.
Exam item: What value of Post-emergence efficacy at 80 g/ha against KCHSC in % has been reported for the following compound? "Clc1cnc(Cc2ccccc2Nc2ncc(Cl)cn2)nc1"
Marked response: 100

* * *

- Test system: Amaranthus retroflexus
- Experiment Notes: Post-emergence herbicidal efficacy at 320 g/ha, AMARE
- Assay type: in vivo
- Conditions: rated visually after about 3 weeks vs untreated controls, 100% = plants have died
Here the recorded Post-emergence efficacy at 320 g/ha against AMARE in % is given for each entry.
Please state the figure in %; there is no need to write the unit.

Exam item: Value wanted: Post-emergence efficacy at 320 g/ha against AMARE in % (Amaranthus retroflexus) of entry Cc1ccc(Nc2ncc(F)cn2)c(-n2cc(C(F)(F)F)cn2)c1C#N [Example 1-46]
Marked response: 90

Exam item: Value wanted: Post-emergence efficacy at 320 g/ha against AMARE in % (Amaranthus retroflexus) of entry Cc1cnn(-c2c(C#N)cccc2Nc2ncc(Cl)cn2)c1 [Example 1-66]
Marked response: 100

Exam item: Value wanted: Post-emergence efficacy at 320 g/ha against AMARE in % (Amaranthus retroflexus) of entry N#Cc1cccc(Nc2ncc(Cl)cn2)c1-n1cc(Cl)cn1 [Example 1-72]
Marked response: 100
